Reference source for all entries: patent US5169855A

Tested on: Botrytis cinerea
PROTOCOL NOTES: Test E: cucumber grey mold disease control (cucumber seedlings)
Assay type: in vivo
SETUP CONDITIONS: sprayed at 1000 to 2 ppm (rate not given per compound)
MEASURED QUANTITY: disease control rating, Test E (%)
Give bare numbers, in %.

Example cases with answers are listed next.
IN: Returns the measured disease control rating, Test E for the input compound. Input: Fc1ccc(COCC2CCN(Cc3ccc(Cl)cc3)CC2)cc1
OUT: 18

IN: Returns the measured disease control rating, Test E for the input compound. Input: CCCCCCN1CCC(COCc2ccc(F)cc2)CC1
OUT: 0

Please look at the items below and tell me disease control rating, Test E for each one, in order.
1. Fc1ccc(COC2CCN(Cc3ccccc3)CC2)cc1
2. Oc1ccc(CN2CCC(COCc3ccc(F)cc3)CC2)cc1
3. Fc1ccc(COCC2CCN(Cc3ccccc3)CC2)cc1

OUT:
[0, 0, 33]

Please look at the items below and tell me disease control rating, Test E for each one, in order.
1. COC(=O)c1ccc(COCC2CCN(Cc3ccccc3)CC2)cc1
2. c1ccc(COCC2CCN(Cc3ccccc3)CC2)cc1
3. Fc1ccc(COCC2CCN(Cc3cccc4ccccc34)CC2)cc1
4. COC(=O)c1ccc(CN2CCC(COCc3ccc(F)cc3)CC2)cc1
5. Fc1ccc(COCC2CCN(Cc3ccc4ccccc4c3)CC2)cc1

OUT:
1: 0; 2: 0; 3: 0; 4: 0; 5: 0

Please look at the items below and tell me disease control rating, Test E for each one, in order.
1. CC(C)=CCN1CCC(COCc2ccc(F)cc2)CC1
2. Fc1ccc(COCC2CCN(CCCc3ccccc3)CC2)cc1

OUT:
8
0
